System: SK-MEL-2
protocol: NCI tumour cell line growth inhibition, 48 h
Activity calls are given as the source filed them. Cut-off read from the data, not from the text of the source: active = GI50 up to about 1.1 µM and inactive = higher.
value_kind: GI50

// below: answered molecules
molecule=CC(C)(C)OC(=O)Nc1nnc(S(N)(=O)=O)s1 subject_of_test=SK-MEL-2 recorded_result="> 100 µM (inactive)"
molecule="CCC1CN2CCc3c([nH]c4ccccc34)[C@@](C(=O)OC)(c3cc4c(cc3OC)N(C)C3C(O)(C(=O)OC)C(C(=O)OC)C5(CC)C=CCN6CCC43C65)C[C@@H](C2)[C@@H]1C(C)(C)C (some centres undefined)" subject_of_test=SK-MEL-2 recorded_result="0.41 µM (active)"

Query: Entry COC(=O)C(O)P(=O)(OC)OC (centres undefined) has what GI50?
Result: > 100 µM (inactive)

Query: Entry "N#CC[N+]1(Cc2ccccn2)CCCC1.O=S(=O)([O-])c1ccccc1" has what GI50?
Result: > 100 µM (inactive)

###

The molecules listed here are annotated with their GI50.
System: DMS-114
protocol: NCI tumour cell line growth inhibition, 48 h
Active and inactive are the calls of the source. No stated cut-off is given here; in the data, active = GI50 up to about 1.1 µM and inactive = higher.

molecule="COc1cc2c(cc1OC)C(C(c1ccccc1)c1ccccc1)N(C)CC2 (configuration not stated)" recorded_result="41.8 µM (inactive)"
molecule="O=C(OCC1CO1)c1cccs1 (configuration not stated)" recorded_result="> 100 µM (inactive)"
molecule=CC1(C)Cc2c(C#N)c(N)c3c(c2CO1)C(=O)OC3=O recorded_result="> 100 µM (inactive)"
molecule=Cc1nc2ccccc2c(=O)n1/N=C(\N=N\c1ccccc1Cl)c1ccccc1 recorded_result="15.5 µM (inactive)"
molecule="C=C(C)[C@H]1CC[C@@]2(C)C(C1)[C@H](C)CC[C@@H]2O (some centres not stated)" recorded_result="> 100 µM (inactive)"

Query: Entry O/N=C1/C(=C/c2ccc(Cl)cc2)CCCC1C(NO)c1ccc(Cl)cc1 (configuration not stated) has what GI50?
Result: 24.5 µM (inactive)

Query: Entry Cc1ccc(S(=O)(=O)ON=C2CC(c3ccccc3)N(C)C(c3ccccc3)C2)cc1 (configuration not stated) has what GI50?
Result: 14.7 µM (inactive)

###

System: NCI-H522
protocol: NCI tumour cell line growth inhibition, 48 h
Calls of active or inactive are those of the source. Rule as the data show it: active = GI50 up to about 1.1 µM and inactive = higher.
The compounds listed here are annotated with their GI50.

compound=N#Cc1c(N)n(-c2nc3ccccc3s2)c(=O)c2cc([N+](=O)[O-])ccc12 recorded_result="6.49 µM (inactive)"
compound=CC12CCC(CC1)C(C)(C)O2 recorded_result="10.1 µM (inactive)"
compound="COc1cc2c(cc1OC)C(C(c1ccccc1)c1ccccc1)N(C)CC2 (stereo not drawn)" recorded_result="74.1 µM (inactive)"

Query: Entry NC1CNC(=O)c2cscc21 (stereo not drawn) has what GI50?
Result: > 100 µM (inactive)

Query: Entry "Cc1cn(S(=O)(=O)c2ccccc2)c2c(OCc3ccccc3)cc(NS(C)(=O)=O)cc12" has what GI50?
Result: 18.8 µM (inactive)

###

Test system: NCI-H23
protocol: NCI tumour cell line growth inhibition, 48 h
The source made the active and inactive calls. No stated cut-off is given here; in the data, active = GI50 up to about 1.1 µM and inactive = higher.
Just give me one of these, please: active, inactive

Answered cases to consult:
molecule="CCCC(CC)c1cc(O)c(O)cc1C(CC)CCC (stereo not drawn)" label=inactive
molecule="COC(C(=O)NCCCCNC(=O)C(OC)c1ccccc1)c1ccccc1 (stereo not drawn)" label=inactive
molecule=COC(=O)CCCC(=O)NC1=C(Nc2ccc(OC)cc2)C(=O)c2ccccc2C1=O label=inactive
molecule="COc1ccc(OC(C)C(=O)O)c2c1CCCC2=O (stereo not drawn)" label=inactive
molecule=COC1(OC)C2(Cl)C3=CCCC=C3C1(Cl)C(Cl)=C2Cl label=inactive

Query: Hi, sorry to bother you, what did the test record for "Cc1ccc(-c2cc(=S)n(-c3ccccc3)c3[nH]c(=S)n(-c4ccccc4)c(=N)c23)cc1" ?
Result: inactive

Query: Hi, sorry to bother you, what did the test record for C=CCOc1cccc(C2(O)c3ccccc3C3=NCCCN32)c1 (stereo not drawn) ?
Result: inactive

Query: Hi, sorry to bother you, what did the test record for Nc1ncnc2c(C3OC(CO)C(O)C3O)scc12 (stereo not drawn) ?
Result: active

###

System: LXFL 529
protocol: NCI tumour cell line growth inhibition, 48 h
Active and inactive are the calls of the source. Cut-off read from the data, not from the text of the source: active = GI50 up to about 1.1 µM and inactive = higher.
The molecules listed here are annotated with their GI50.

// below: answered molecules
molecule="O=[N+]([O-])c1cccc(C2N3CCCCC3[C@@H]3c4[nH]c5ccccc5c4CCN23)c1 (stereo not given in full)" recorded_result="19 µM (inactive)"
molecule="Cc1cccc(C)c1NC(=O)C1C(=O)N(c2c(C)cccc2C)C(=O)/C1=N\\NC(N)=S (stereo not given)" recorded_result="> 100 µM (inactive)"
molecule="O=C(OCC1CO1)c1cccs1 (stereo not given)" recorded_result="> 100 µM (inactive)"
molecule=c1ccc(C2=NN3CN(N2)c2ccccc2OCCCOc2ccccc23)cc1 recorded_result="> 100 µM (inactive)"
molecule=CC(C)(Oc1ccc(/C=C/C(=O)c2ccccc2)cc1)C(=O)Nc1c(Cl)cccc1Cl recorded_result="6.56 µM (inactive)"
molecule="O=[N+]([O-])c1ccc2nc(/C(=N\\Nc3ccccc3)C(O)c3ccc4c(c3)OCO4)c(O)nc2c1 (stereo not given)" recorded_result="50.7 µM (inactive)"
molecule="Cc1c(C2Cc3ccccc3N2C(=O)/C=C\\C(=O)O)c2ccccc2n1C (stereo not given)" recorded_result="17.3 µM (inactive)"
molecule=COc1ccc(CNc2cnc3cc(N)ccc3n2)cc1 recorded_result="> 100 µM (inactive)"
molecule=O=C1OC(c2ccccc2)=N/C1=C\c1c(O)cc(O)cc1O recorded_result="41 µM (inactive)"
molecule=CC(C)CCS(=O)(=O)OCCCCOS(=O)(=O)CCC(C)C recorded_result="> 100 µM (inactive)"

Query: Entry COC1C(OC(=S)Nc2ccccc2)c2ccccc2N1C(C)=O (stereo not given) has what GI50?
Result: 44.4 µM (inactive)

Query: Entry "Nc1c(-c2ccc(Br)cc2)[n+]([O-])c2ccccc2[n+]1[O-]" has what GI50?
Result: > 100 µM (inactive)

Query: Entry "Cc1ccc(OC(=O)N2C/C(=C\c3ccccc3)C(=O)/C(=C/c3ccccc3)C2)cc1" has what GI50?
Result: 9.98 µM (inactive)

Query: Entry "COc1ccc(-c2nc(N)n(C)c2SSc2c(-c3ccc(OC)cc3)nc(N)n2C)cc1" has what GI50?
Result: 1.67 µM (inactive)

Query: Entry "CCOC(=O)c1cnc2sc3ccc4ccccc4c3n2c1=O" has what GI50?
Result: 55.2 µM (inactive)

Query: Entry "C/N=c1\ss/c(=N\C(=S)N(C)C)n1C1CCCCC1" has what GI50?
Result: > 31.6 µM (inactive)

Query: Entry CSc1ccc(C2OC(=O)c3ccccc32)c2ccccc12 (stereo not given) has what GI50?
Result: 58.3 µM (inactive)

Query: Entry N#CC1C(C#N)C2(c3ccccc3)C(c3ccccc3)=NN(c3ccccc3)CC12 (stereo not given) has what GI50?
Result: > 100 µM (inactive)

Query: Entry "CN(C)CCOc1cccc2c1C(=O)c1ccccc1C2=O" has what GI50?
Result: 12.1 µM (inactive)

Query: Entry "N#CC1(C#N)C(c2ccc(C3C(C#N)(C#N)C3(C#N)C#N)cc2)C1(C#N)C#N" has what GI50?
Result: > 100 µM (inactive)

###

System: OVCAR-4
protocol: NCI tumour cell line growth inhibition, 48 h
Active and inactive are the calls of the source. Rule as the data show it: active = GI50 up to about 1.1 µM and inactive = higher.
Just give me one of these, please: T = active, F = inactive

Answered cases to consult:
molecule=C=C1C(=O)O[C@@H]2[C@@H]3O[C@@H](C[C@@H]13)[C@](C)(O)CC/C=C(\C)CCC[C@@H]2C subject_of_test=OVCAR-4 label=F
molecule="CC1(C)OC2[C@@H](CO[C@@]3([C@H]4OC(C)(C)O[C@@H]4CO)OC(C)(C)O[C@@H]23)O1 (stereo partly specified)" subject_of_test=OVCAR-4 label=F
molecule=O=C(O)c1ccc(C(O)(c2ccccc2)c2ccccc2)cc1 subject_of_test=OVCAR-4 label=F

Query: Hi, sorry to bother you, what did the test record for Nc1ncnc2c1ncn2CC(O)C(=O)O (stereo unspecified) ?
Result: F

Query: Hi, sorry to bother you, what did the test record for Cc1ccc2c(c1C)CC1(Cc3c(C)ccc(C)c3C1=O)C2=O (stereo unspecified) ?
Result: F

Query: Hi, sorry to bother you, what did the test record for COC1/C=C/C(C)C(C(C)C(OC)C(C)CCC(=O)C(C)C(CC(=O)O)OC)OC(=O)/C=C/C=C(\C)CC(OC)C(OC)C2=CC(=O)O[C@@H](C(C)C(OC)CC(OC)/C=C/C(C)C(O)C1)[C@H]2O (stereo partly specified) ?
Result: T

###

Test system: MDA-MB-435
protocol: NCI tumour cell line growth inhibition, 48 h
The source made the active and inactive calls. Rule as the data show it: active = GI50 up to about 1.1 µM and inactive = higher. Square brackets hold non-standard residues; d marks the D form. Peptide text beside a SMILES is read from it. * marks the point of attachment. X26 = COC1=CC(=O)N(C(=O)[C@@H](O*)C(C)C)[C@H]1Cc1ccccc1; NMeL = CN[C@@H](CC(C)C)C(=O)O; Hexanoyl = CCCCCC(=O)*
Just give me one of these, please: active, inactive

Answered cases to consult:
compound=NC(=S)NS(=O)(=O)c1ccc(F)cc1F subject_of_test=MDA-MB-435 label=inactive
compound="CCCCCC(=O)N[C@H](C(=O)N[C@H](C(=O)N(C)[C@@H](CC(C)C)C(=O)N1CCC[C@H]1C(=O)N1CCC[C@H]1C(=O)O[C@H](C(=O)N1C(=O)C=C(OC)[C@@H]1Cc1ccccc1)C(C)C)C(C)C)C(C)C (Hexanoyl-VV[NMeL]PP-X26)" subject_of_test=MDA-MB-435 label=inactive
compound=Cc1ccc(S(=O)(=O)Nn2c(C)cc3ccc(S(=O)(=O)Nc4ccccc4[N+](=O)[O-])cc3c2=O)cc1 subject_of_test=MDA-MB-435 label=inactive
compound="Cc1c(Cl)cccc1NC(=O)CC1Sc2ccccc2NC1=O (stereo unspecified)" subject_of_test=MDA-MB-435 label=inactive
compound=CC[C@@H]1C[C@@H](O)[C@@H]2[C@H](O)[C@H](O)CN2C1 subject_of_test=MDA-MB-435 label=inactive

Query: Hi, sorry to bother you, what did the test record for "Oc1ccc(-c2nc3ccccc3s2)cc1" ?
Result: inactive

Query: Hi, sorry to bother you, what did the test record for "O=C1c2ccccc2-c2oc(=O)c3ccccc3c21" ?
Result: inactive

Query: Hi, sorry to bother you, what did the test record for "c1ccc2c3c(c(N4CCNCC4)nc2c1)CCCC3" ?
Result: inactive

Query: Hi, sorry to bother you, what did the test record for COC(C(=O)C(O)C(C)O)C1Cc2cc3cc(OC4CC(OC(C)=O)C(OC5CC(O)C(OC)C(C)O5)C(C)O4)cc(O)c3c(O)c2C(=O)C1OC1CC(OC2CC(OC3CC(C)(O)C(OC(=O)C(C)C)C(C)O3)C(O)C(C)O2)C(O)C(C)O1 (stereo unspecified) ?
Result: active

Query: Hi, sorry to bother you, what did the test record for "CC1=NN(c2nc(N)nc(CBr)n2)C(C)(C)C1" ?
Result: inactive

Query: Hi, sorry to bother you, what did the test record for "CC(=O)C(=[N+]=[N-])C(=O)N1CCOC1=O" ?
Result: inactive

Query: Hi, sorry to bother you, what did the test record for "O=C(Nc1nccs1)c1cc2c(cc1Cl)Sc1nccn1S2(=O)=O" ?
Result: inactive

Data provenance: ChEMBL document CHEMBL1201862
